// koff lookup, one value per entry
SYSTEM_NAME: T1, cynomolgus soluble urokinase plasminogen activator receptor (suPAR) (cynomolgus, UniProt Q9GK78 23-303, limits assumed)
T1 construct: Target antigen of the off-rate screen; also called cynomolgus uPAR; cynomolgus suPAR
ASSAY_METHOD_TEXT: off-rate (kdis) screen of scFv clones, biosensor (Octet)
Dear colleague, please return just the value in s⁻¹, with no unit written.

Illustrative cases are given below, each with its answer.
- BINDER: "suPAR_DB01_E02 (scFv, V domains shown, screened as scFv) VH: QVQLVQSGAEVKKPGASVKVSCKASGYTFTSYYMHWVRQAPGQGLEWMGWIDPEGGSTIYDQKFQGRVTMTRDTSTSTVYMELSSLRSEDTAVYYCARGYDVDWFVYWGQGTLVTVSS VL: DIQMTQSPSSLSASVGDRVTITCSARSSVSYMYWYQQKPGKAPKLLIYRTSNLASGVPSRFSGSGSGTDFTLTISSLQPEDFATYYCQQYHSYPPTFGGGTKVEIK"
  MEASUREMENT: 0.000347
- BINDER: "suPAR_DB01_B02 (scFv, V domains shown, screened as scFv) VH: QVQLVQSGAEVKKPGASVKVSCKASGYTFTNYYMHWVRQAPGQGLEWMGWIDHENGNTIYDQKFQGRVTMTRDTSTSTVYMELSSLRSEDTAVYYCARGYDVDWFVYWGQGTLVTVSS VL: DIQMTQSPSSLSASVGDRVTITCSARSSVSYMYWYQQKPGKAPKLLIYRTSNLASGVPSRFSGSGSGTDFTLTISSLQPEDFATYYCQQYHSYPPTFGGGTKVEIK"
  MEASUREMENT: 0.000177
- BINDER: "suPAR_DB01_E07 (scFv, V domains shown, screened as scFv) VH: QVQLVQSGAEVKKPGASVKVSCKASGYTFTSYYMHWVRQAPGQGLEWMGWIDHENGNTIYDQKFQGRVTMTRDTSTSTVYMELSSLRSEDTAVYYCARGYDVDWFVYWGQGTLVTVSS VL: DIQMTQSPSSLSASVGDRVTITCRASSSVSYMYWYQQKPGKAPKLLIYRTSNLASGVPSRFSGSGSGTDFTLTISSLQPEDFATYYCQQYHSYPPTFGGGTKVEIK"
  MEASUREMENT: "6.72e-05"
- BINDER: "suPAR_DB01_A11 (scFv, V domains shown, screened as scFv) VH: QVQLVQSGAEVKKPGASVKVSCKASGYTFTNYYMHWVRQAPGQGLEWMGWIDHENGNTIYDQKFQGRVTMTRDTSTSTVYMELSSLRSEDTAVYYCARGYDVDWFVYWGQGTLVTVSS VL: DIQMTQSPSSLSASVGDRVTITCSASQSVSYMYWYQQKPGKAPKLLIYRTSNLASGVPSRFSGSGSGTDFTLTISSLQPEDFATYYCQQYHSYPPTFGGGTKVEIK"
  MEASUREMENT: 0.000479
- BINDER: "suPAR_DB01_B08 (scFv, V domains shown, screened as scFv) VH: QVQLVQSGAEVKKPGASVKVSCKASGYTFTGYYMHWVRQAPGQGLEWMGWIDPENGSTIYDQKFQGRVTMTRDTSTSTVYMELSSLRSEDTAVYYCARGYDVDWFVYWGQGTLVTVSS VL: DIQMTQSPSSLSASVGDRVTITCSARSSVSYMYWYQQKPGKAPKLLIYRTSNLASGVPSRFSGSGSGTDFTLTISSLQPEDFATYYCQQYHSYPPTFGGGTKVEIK"
  MEASUREMENT: 0.000211
- BINDER: "suPAR_DB01_E01 (scFv, V domains shown, screened as scFv) VH: QVQLVQSGAEVKKPGASVKVSCKASGYSFTSYYMHWVRQAPGQGLEWMGWIDPEGGSTIYDQKFQGRVTMTRDTSTSTVYMELSSLRSEDTAVYYCARGYDVDWFVYWGQGTLVTVSS VL: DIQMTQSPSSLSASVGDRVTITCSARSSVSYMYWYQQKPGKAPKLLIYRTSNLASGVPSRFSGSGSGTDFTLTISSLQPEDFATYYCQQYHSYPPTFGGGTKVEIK"
  MEASUREMENT: 0.000254
- BINDER: "suPAR_DB01_D01 (scFv, V domains shown, screened as scFv) VH: QVQLVQSGAEVKKPGASVKVSCKASGYTFTGYYMHWVRQAPGQGLEWMGWIDHENGSTIYAQKFQGRVTMTRDTSTSTVYMELSSLRSEDTAVYYCARGYDVDWFVYWGQGTLVTVSS VL: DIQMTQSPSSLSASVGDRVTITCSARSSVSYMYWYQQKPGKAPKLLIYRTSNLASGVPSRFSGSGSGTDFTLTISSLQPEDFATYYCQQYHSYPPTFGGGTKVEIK"
  MEASUREMENT: 0.000369
- BINDER: "suPAR_DB01_B05 (scFv, V domains shown, screened as scFv) VH: QVQLVQSGAEVKKPGASVKVSCKASGYTFTNYYMHWVRQAPGQGLEWMGWIDPENGNTIYDQKFQGRVTMTRDTSTSTVYMELSSLRSEDTAVYYCARGYDVDWFVYWGQGTLVTVSS VL: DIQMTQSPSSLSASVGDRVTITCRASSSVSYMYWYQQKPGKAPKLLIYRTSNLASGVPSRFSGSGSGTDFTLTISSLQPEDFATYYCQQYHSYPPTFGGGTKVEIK"
  MEASUREMENT: 0.000181
- BINDER: "suPAR_DB01_C08 (scFv, V domains shown, screened as scFv) VH: QVQLVQSGAEVKKPGASVKVSCKASGYTFTGYYMHWVRQAPGQGLEWMGWIDHENGNTIYAQKFQGRVTMTRDTSTSTVYMELSSLRSEDTAVYYCARGYDVDWFVYWGQGTLVTVSS VL: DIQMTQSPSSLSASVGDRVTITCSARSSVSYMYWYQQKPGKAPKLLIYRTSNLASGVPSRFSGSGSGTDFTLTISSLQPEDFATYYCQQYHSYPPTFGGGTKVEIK"
  MEASUREMENT: 0.00042

Below: the item to evaluate.
query: Quick check: koff of suPAR_DB01_F01 (scFv, V domains shown, screened as scFv) VH: QVQLVQSGAEVKKPGASVKVSCKASGYTFTSYYVHWVRQAPGQGLEWMGWIDHENGSTIYAQKFQGRVTMTRDTSTSTVYMELSSLRSEDTAVYYCARGYDVDWFVYWGQGTLVTVSS VL: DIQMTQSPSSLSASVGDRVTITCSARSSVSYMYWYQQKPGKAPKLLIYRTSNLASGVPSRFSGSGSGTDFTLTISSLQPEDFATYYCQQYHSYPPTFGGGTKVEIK ?
result: 0.000203

Every entry's value here was drawn from patent US20250215104A1.
